Give MIC E. coli for every item shown.
Test system: E. coli ATTC 8739
Type: cell-based, Escherichia coli
condition_context: ATTC 8739
Bridge positions count the residues as written; N and C are the ends. Square brackets hold non-standard residues; d marks the D form. Peptide text beside a SMILES is read from it. * marks the point of attachment. Nonanoyl = CCCCCCCCC(=O)*; Dab = NCC[C@H](N)C(=O)O
One number for each entry, in µg/mL.

Example results:
{"columns": ["compound", "recorded_number"],
 "data": [
  ["CCCCCCCCC(=O)N[C@@H](CCCNC(=N)N)C(=O)N[C@H](C(=O)N[C@@H](CCCNC(=N)N)C(=O)N[C@H]1CSSC[C@@H](C(N)=O)NC(=O)[C@H](CCCNC(=N)N)NC(=O)[C@H](CCCNC(=N)N)NC(=O)[C@H](CC(C)C)NC(=O)[C@@H](Cc2ccccc2)NC(=O)[C@H](CCN)NC1=O)[C@@H](C)O [Analog 10] (Nonanoyl-RTRC[Dab][dF]LRRC-NH2; disulfide 4-10)", 32],
  ["CCCCCCCCC(=O)N[C@@H](CCCNC(=N)N)C(=O)N[C@H](C(=O)N[C@@H](CCCNC(=N)N)C(=O)N[C@H]1CSSC[C@@H](C(N)=O)NC(=O)[C@H](CCN)NC(=O)[C@H](CCCNC(=N)N)NC(=O)[C@H](CC(C)C)NC(=O)[C@@H](Cc2ccccc2)NC(=O)[C@H](CCN)NC1=O)[C@@H](C)O [Analog 8] (Nonanoyl-RTRC[Dab][dF]LR[Dab]C-NH2; disulfide 4-10)", 4],
  ["CCCCCCCCC(=O)N[C@@H](CCCNC(=N)N)C(=O)N[C@H](C(=O)N[C@@H](CCN)C(=O)N[C@H]1CSSC[C@@H](C(N)=O)NC(=O)[C@H](CCN)NC(=O)[C@H](CCCNC(=N)N)NC(=O)[C@H](CC(C)C)NC(=O)[C@@H](Cc2ccccc2)NC(=O)[C@H](CCN)NC1=O)[C@@H](C)O [Analog 5] (Nonanoyl-RT[Dab]C[Dab][dF]LR[Dab]C-NH2; disulfide 4-10)", 8],
  ["CCCCCCCCC(=O)N[C@@H](CCN)C(=O)N[C@H](C(=O)N[C@@H](CCN)C(=O)N[C@H]1CSSC[C@@H](C(N)=O)NC(=O)[C@H](CCN)NC(=O)[C@H](CCN)NC(=O)[C@H](CC(C)C)NC(=O)[C@@H](Cc2ccccc2)NC(=O)[C@H](CCN)NC1=O)[C@@H](C)O [Analog 1] (Nonanoyl-[Dab]T[Dab]C[Dab][dF]L[Dab][Dab]C-NH2; disulfide 4-10)", 4],
  ["CCCCCCCCC(=O)N[C@@H](CCN)C(=O)N[C@H](C(=O)N[C@@H](CCN)C(=O)N[C@H]1CSSC[C@@H](C(N)=O)NC(=O)[C@H](CCN)NC(=O)[C@H](CCCNC(=N)N)NC(=O)[C@H](CC(C)C)NC(=O)[C@@H](Cc2ccccc2)NC(=O)[C@H](CCN)NC1=O)[C@@H](C)O [Analog 4] (Nonanoyl-[Dab]T[Dab]C[Dab][dF]LR[Dab]C-NH2; disulfide 4-10)", 8]
]}

Query: Given the compound CCCCCCCCC(=O)N[C@@H](CCN)C(=O)N[C@H](C(=O)N[C@@H](CCCNC(=N)N)C(=O)N[C@H]1CSSC[C@@H](C(N)=O)NC(=O)[C@H](CCN)NC(=O)[C@H](CCCNC(=N)N)NC(=O)[C@H](CC(C)C)NC(=O)[C@@H](Cc2ccccc2)NC(=O)[C@H](CCN)NC1=O)[C@@H](C)O [Analog 6] (Nonanoyl-[Dab]TRC[Dab][dF]LR[Dab]C-NH2; disulfide 4-10) , what is its reported MIC E. coli?
Reply: 8
